# Test system: XIP peptide (Xip251-270) binding
# TEST: small-molecule binders of XIP peptide, primary screen, biochemical, small-molecule microarray, fluorescence 635/667 nm, 0.1 µg/mL protein (AID 1182)
# CONDITION PARAMETERS: fluorescent protein binding, 635 nm, higher = more signal, called active from +8 up or from −8 down
METRIC NAME: composite z-score
One number for each entry.

Look over these answered cases.
COC(=O)C(CC#Cc1ccc2c(c1)[C@]1(C(=O)N2)[C@H](c2ccc(OCCO)cc2)N2[C@H](c3ccccc3)[C@H](c3ccccc3)OC(=O)[C@H]2[C@@H]1C(N)=O)C(=O)OC = 0.372
C=C(COC)C(=O)CC[C@H](OC(C)=O)c1ccc(CO)o1 = -0.153
C=CC[C@]1(C(N)=O)N=C(c2ccc(OCCCO)cc2)O[C@H]1c1ccccc1N=[N+]=[N-] = 1.26

Could I get composite z-score for every one of these entries?
1. CCc1cccc(NC(=O)O[C@H]2[C@H](OC(=O)Nc3ccccc3-c3ccccc3)[C@H](OC(=O)Nc3ccccc3-c3ccccc3)[C@@H](OC)O[C@@H]2CO)c1
2. COCCOC(=O)N1C(=O)[C@@]2(c3cc(C#CCC(C(=O)OC)C(=O)OC)ccc31)[C@H](c1ccc(O)cc1)N1[C@H](c3ccccc3)[C@H](c3ccccc3)OC(=O)[C@H]1[C@@H]2C(=O)N1CCc2cc(OC)c(OC)cc2C1
3. CCCCN1CC=CC23O[C@@H]4/C=C\CCC(C)OC(=O)C4[C@H]2C(=O)N(CCO)[C@@H]3C1=O (stereo partly specified)

a:
1: 0.187; 2: 0.406; 3: 0.874

----------
# TEST: yeast growth modulation, basal conditions, primary screen, YJM789 clinical isolate, OD600, 24 h (AID 1089);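 also: growth of clinical yeast isolate S. cerevisiae YJM 789 seeded 1000 cells per well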
# CONDITION PARAMETERS: S. cerevisiae YJM789 growth, higher = more signal, called active from +8 up or from −8 down
METRIC NAME: z-score
Numbers only.

COc1c(C)cc(-c2cc3c(c(CCc4ccccc4)n2)[Si](C(C)C)(C(C)C)O[C@H]3c2ccccc2)cc1C = 0.864

Could I get z-score for every one of these entries?
1. C=C(COC)/C(=C/C[C@@H](OC(C)=O)c1cccc(OCCO)c1)c1cnc2ccccc2c1
2. COc1ccc([Si](C)(C)[C@@H]2[C@@H](CC(=O)N3Cc4ccccc4C[C@H]3CO)O[C@]3(C(=O)N(Cc4ccc(I)cc4)c4ccccc43)[C@H]2C)cc1
3. O=C1O[C@H](c2ccccc2)[C@H](c2ccccc2)N2[C@H]1[C@@H](C(=O)N1CCCCCCC1)[C@]1(C(=O)Nc3ccc(C#CCCO)cc31)[C@H]2c1ccc(O)cc1
4. CCCCC=C[C@@H](NC(=O)C(C)(C)C)c1ccccc1
5. C[N+](C)(C)CCCC[C@@H]1NC(=O)[C@H]2C[C@@H](C(=O)NCCCCCN)[C@@H](c3ccc(O)cc3)N2C1=O
6. [N-]=[N+]=Nc1ccccc1C[C@]1(C(N)=O)COC(c2ccc(OCCCO)cc2)=N1

a:
[-2.07, 0.391, 0.6, 0.924, -0.407, -0.684]

----------
# TEST: small-molecule binders of probe aNOTCH2, primary screen, biochemical, small-molecule microarray, 635/667 nm fluorescence (AID 1121);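 also: score merges feature fluorescence read at 667 nm with its signal to noise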
# CONDITION PARAMETERS: higher = more signal
Decide using composite z-score: a value greater than or equal to -0.1 is Fulfilled, a smaller one is Not fulfilled.

Examples with answers:
C=C(C(=O)CC[C@H](OC(=O)c1ccccc1-c1ccccc1C(=O)O)c1ccc(OCCO)cc1)C(C)C = Not fulfilled
C=C(C(=O)CC[C@@H](OC(=O)c1cccnc1)c1cccc(OCCO)c1)C(C)C = Not fulfilled
O=C1NC(=O)C2C1C=CC(C(O)C1CCCCC1)N2Nc1ccccn1 (stereo not drawn) = Fulfilled
CN(C)CCCCNC(=O)[C@H]1C[C@H]2C(=O)N[C@@H](CCCCN(C)C)C(=O)N2[C@H]1c1ccc(O)cc1 = Fulfilled

In the following, a different compound is considered.
q: Form field: composite z-score at least -0.1? Entry: COc1cc(Cc2cc3c(c(CCc4ccccc4)n2)[Si](C(C)C)(C(C)C)O[C@H]3c2ccccc2)cc(OC)c1OC
a: Not fulfilled

----------
# TEST: E. coli growth modulation, two-sided OD650, primary screen, E. coli filamentation project, strain DRC41, 24 h (AID 1093);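 also: MC1000 strain lacking acrAB efflux and sulA so SOS filamentation is blocked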
# CONDITION PARAMETERS: OD650, 24 h, higher = more signal, called active from +8 up or from −8 down
Decide using z-score: a value greater than or equal to -0.08 is met, a smaller one is not met.

CC(C)Cc1ccc(CN2CC[C@@H](NC(=O)c3ccccc3)C2)cc1 = not met
CCCCCCc1nc(Cc2cc(OC)c(OC)c(OC)c2)c(C)c2c1[Si](C(C)C)(C(C)C)OC2 = met
CCCCC(=C=CC[C@H](O)c1ccccc1OCCO)CCO = met
CN1C(=O)C2C(C1=O)C1C=C(CCCO)C2C(C2CC2)N1C (stereo unspecified) = not met
COC(=O)C1=CC(CCCO)=CC(c2ccc(CN3CCCC3)cc2)N(C)C=C1C(=O)OC (stereo unspecified) = met
CC(C)(C)OC(=O)CC[C@@]1(C(=O)N2CCOCC2)N=C(c2ccc(OCCCO)cc2)O[C@@H]1c1ccccc1CN=[N+]=[N-] = met
COCCOC(=O)N1C(=O)[C@@]2(c3cc(C#CCNC(N)=O)ccc31)[C@H](c1ccc(O)cc1)N1[C@H](c3ccccc3)[C@H](c3ccccc3)OC(=O)[C@H]1[C@@H]2C(=O)N1CCc2cc(OC)c(OC)cc2C1 = not met
C=CCOC(=O)[C@H]1[C@@H]2C(=O)O[C@@H](c3ccccc3)[C@@H](c3ccccc3)N2[C@@H](c2ccc(OCCOC(=O)[C@H]3C[C@H]4C(=O)NCC(=O)N4[C@H]3c3ccc(O)cc3)cc2)[C@]12C(=O)Nc1ccccc12 = met

q: Form field: z-score at least -0.08? Entry: C=C(C(=O)CC[C@@H](OC(=O)c1cccnc1)c1cccc(OCCO)c1)C(C)C
a: met

q: Form field: z-score at least -0.08? Entry: CCCC[C@@H](O)C1=C(C)Cn2c(=O)n(-c3ccccc3)c(=O)n2[C@H]1CO
a: met

q: Form field: z-score at least -0.08? Entry: O=C1c2ccccc2[C@](Cc2ccccc2I)(C(=O)NCCN2CCOCC2)[C@H](c2ccc(CO)cc2)N1Cc1ccccc1C(F)(F)F
a: not met

q: Form field: z-score at least -0.08? Entry: COc1ccc(C(O)C2C=CC3C(=O)N(c4ccccc4)C(=O)C3N2Nc2ccccc2F)c2ccccc12 (stereo unspecified)
a: not met

q: Form field: z-score at least -0.08? Entry: [N-]=[N+]=NCc1ccccc1[C@H]1OC(c2ccc(OCCCO)cc2)=N[C@@]1(Cc1ccccc1N=[N+]=[N-])C(N)=O
a: met

q: Form field: z-score at least -0.08? Entry: Cc1ccc(S(=O)(=O)N2[C@@H](c3ccccc3)C(C(=O)O)=CC[C@H]2c2ccc(F)cc2)cc1
a: not met

q: Form field: z-score at least -0.08? Entry: [N-]=[N+]=Nc1ccccc1C[C@]1(C(=O)N2CCCCC2)N=C(c2ccc(OCCCO)cc2)O[C@H]1c1ccccc1
a: met

q: Form field: z-score at least -0.08? Entry: CCCCC(=C=CC[C@@H](O)c1ccc(OCCO)cc1)CCO
a: met

----------
# TEST: small-molecule microarray binders of probe aShh, primary screen, biochemical, biotinylated probe, 635/667 nm fluorescence (AID 1114);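 also: probe is biotin-labelled aShh protein from a stem cell growth factor screen; measures binding of labelled protein to compounds printed on the slide; score merges feature fluorescence at 667 nm with signal-to-noise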
# CONDITION PARAMETERS: higher = more signal
METRIC NAME: composite z-score

Look over these answered cases.
O=C(NCCN1CCOCC1)[C@@H]1c2ccccc2C(=O)N(CC23CC4CC(CC(C4)C2)C3)[C@H]1c1ccc(CO)cc1 = -0.0362
C=CCNC(=O)[C@H]1[C@@H]2C(=O)O[C@@H](c3ccccc3)[C@@H](c3ccccc3)N2[C@@H](c2ccc(OCCO)cc2)[C@]12C(=O)Nc1ccc(C#Cc3ccc(OC)cc3)cc12 = 0.465
COc1ccc([Si](C)(C)[C@H]2[C@H](CC(=O)N(CCO)Cc3ccccc3)O[C@@]3(C(=O)N(Cc4ccc(N5C(=O)c6cccc7cccc5c67)cc4)c4ccccc43)[C@@H]2C)cc1 = 0.19

Could I get composite z-score for every one of these entries?
1. COc1ccc(CCNC(=O)[C@@H]2c3ccccc3C(=O)N(Cc3cc(F)cc(C(F)(F)F)c3)[C@H]2c2ccc(CO)cc2)cc1
2. CCCNC(=O)[C@@]1(Sc2ccc(C)cc2)CC(=O)N(Cc2cc(C(F)(F)F)cc(C(F)(F)F)c2)[C@@H]1c1ccc(CO)cc1
3. O=C1N(Cc2ccccc2)c2ccccc2C[C@@]12N=C(c1ccc(OCCCO)cc1)O[C@H]2c1ccccc1
4. [N-]=[N+]=NCc1ccccc1[C@H]1OC(c2ccc(OCCCO)cc2)=N[C@@]1(Cc1ccccc1N=[N+]=[N-])C(N)=O
5. [N-]=[N+]=NCc1ccccc1C[C@]1(C(=O)N2CCCCC2)COC(c2ccc(OCCCO)cc2)=N1
6. CC(C)c1ccc(NN2C(C(O)C3CCCCC3)C=CC3C(=O)N(c4ccccc4)C(=O)C32)cc1 (stereo not given)
7. COCCOC(=O)N1C(=O)[C@@]2(c3cc(C#CC4=CCCCC4)ccc31)[C@H](C(=O)N1CCCCCCC1)[C@H]1C(=O)O[C@H](c3ccccc3)[C@H](c3ccccc3)N1[C@@H]2c1ccccc1OCCO

a:
1: -0.314; 2: -0.291; 3: 0.0948; 4: -0.111; 5: 0.262; 6: -0.144; 7: 0.926

Could I get composite z-score for every one of these entries?
1. COC(=O)[C@H](Cc1ccccc1)N1CC(C)(OC)O[C@@H](Cc2ccccc2)[C@H]1/C=C/C1CC1 (stereo not given in full)
2. CCOC(=O)C1=CC[C@@H](c2ccccc2)N(S(=O)(=O)c2ccc(C)cc2)[C@@H]1C#N
3. C=C(C)C1CN([C@H](CO)c2ccccc2)C(=O)/C1=C\c1ccccc1 (stereo not given in full)
4. C[N+](C)(C)CCCC[C@@H]1NC(=O)[C@H]2C[C@@H](C(=O)NCCCCCN)[C@@H](c3ccc(O)cc3)N2C1=O
5. CC1(C)OB(/C=C\CC(OC(=O)c2ccncc2)c2ccccc2)OC1(C)C (stereo not given)

a:
1: -0.198; 2: 0.14; 3: -0.289; 4: -0.0886; 5: 0.0469
